Origin of values: ChEMBL document CHEMBL3045434

- System: Candida albicans
- test_method_notes: Antifungal activity against Candida albicans ATCC 24433 by two-fold serial dilution method
- Type: functional
assay_endpoint: MIC (µg/mL)
Report the figure in µg/mL without appending any unit label.

Challenge: Please give the documented MIC of OC(Cn1cncn1)(Cn1cncn1)c1ccc(F)cc1F
Response given: 6.25

Challenge: Please give the documented MIC of O=c1[nH]nc2c3c(c(-c4ccc(Cl)cc4)nc4ccccc43)c(-c3ccccc3)c(-c3ccccc3)n12
Response given: 12.5

Challenge: Please give the documented MIC of Nc1ccc(C2=N/C(=N/N=C(/C[n+]3c(-c4ccccc4)cc(C(=O)O)c4ccccc43)c3ccccc3)SC2)cc1.[I-]
Response given: 3.12
